Just for reference, patent US20090317363A1 is where these values come from.

biological target: CCR5 (UniProt P51681); assay: cell-based or functional assay
Recorded endpoint: anti-HIV potency (IC50, nM) by viral replication assay
Quick reminder: number only, in nM, skip the unit.

Consider the binder shown here: RANTES derivative: signature sequence SEQ ID NO: 10 fused to positions 10-68 of native RANTES (SEQ ID NO: 1) (ligand) QGPPLMWLQSCCFAYIARPLPRAHIKEYFYTSGKCSNPAVVFVTRKNRQVCANPEKKWVREYINSLEMS What is its recorded anti-HIV potency (IC50, nM) by viral replication assay?
0.403

Consider the binder shown here: RANTES derivative: signature sequence SEQ ID NO: 5 fused to positions 10-68 of native RANTES (SEQ ID NO: 1) (ligand) QGPPLMWTQSCCFAYIARPLPRAHIKEYFYTSGKCSNPAVVFVTRKNRQVCANPEKKWVREYINSLEMS What is its recorded anti-HIV potency (IC50, nM) by viral replication assay?
0.576

Consider the binder shown here: RANTES derivative: signature sequence SEQ ID NO: 24 fused to positions 10-68 of native RANTES (SEQ ID NO: 1) (ligand) QGPPLMSLQVCCFAYIARPLPRAHIKEYFYTSGKCSNPAVVFVTRKNRQVCANPEKKWVREYINSLEMS What is its recorded anti-HIV potency (IC50, nM) by viral replication assay?
0.174
